tgt: RGS4 (Rattus norvegicus, UniProt P49799)
Construct: made in house
Sequence (P49799 52-205 limits assumed): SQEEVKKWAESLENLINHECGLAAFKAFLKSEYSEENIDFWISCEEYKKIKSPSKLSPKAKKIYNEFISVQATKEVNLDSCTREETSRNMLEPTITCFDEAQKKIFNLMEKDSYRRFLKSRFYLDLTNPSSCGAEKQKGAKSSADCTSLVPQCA
test_protocol: FCPIA (flow cytometry protein interaction assay), RGS4-Gαo interaction, wild type RGS4 (MBP-RGS4Δ51N)
Assay type: binding
condition: peptide 50 μM; 25 nM Gαo-Alexa Fluor-532, 5 nM RGS4-biotin
Where a SMILES comes first, the peptide text is derived from it. Bridges are numbered along the chain shown (N, C = ends).
Each entry below lists one item and its recorded % Inhibition of RGS4-Gαo value.
// return numeric value only (unit: %, not printed)

>  <compound>
CSCC[C@@H]1NC(=O)[C@@H](NC(=O)[C@@H](NC(=O)[C@@H](N)CCCCN)C(C)C)CSSC[C@@H](C(=O)N[C@H](C(N)=O)[C@@H](C)O)NC(=O)CNC(=O)CNC1=O [Peptide 4nd, KVCMGGCT-NH2] (H-KVCMGGCT-NH2; disulfide 3-7)

>  <property>
% Inhibition of RGS4-Gαo

>  <measured_value>
4

$$$$
>  <compound>
CC(C)C[C@H](N)C(=O)N[C@H](C(=O)N[C@H]1CSSC[C@@H](C(=O)N[C@@H](CCC(N)=O)C(N)=O)NC(=O)[C@H](Cc2ccc(O)cc2)NC(=O)CNC(=O)[C@H](CCCCN)NC1=O)C(C)C [Peptide 3nd, LVCKGYCQ-NH2] (H-LVCKGYCQ-NH2; disulfide 3-7)

>  <property>
% Inhibition of RGS4-Gαo

>  <measured_value>
12

$$$$

Let us move to another entry and its % Inhibition of RGS4-Gαo.
// query Look up % Inhibition of RGS4-Gαo for this compound: CC(=O)N[C@@H](Cc1ccc(O)cc1)C(=O)N[C@@H](CC(N)=O)C(=O)N[C@H]1CSSC[C@@H](C(=O)N[C@@H](CCCCN)C(N)=O)NC(=O)[C@H](CCC(=O)O)NC(=O)CNC(=O)[C@H](CCC(N)=O)NC1=O [Peptide 1ad, Ac-YNCQGECK-NH2] (Ac-YNCQGECK-NH2; disulfide 3-7)
// result 14

* * *

tgt: RGS4 (Rattus norvegicus)
Construct: made in house
test_protocol: FCPIA (flow cytometry protein interaction assay), RGS4-Gαo interaction, wild type RGS4 (MBP-RGS4Δ51N)
Format: binding
condition: peptide 50 μM; 25 nM Gαo-Alexa Fluor-532, 5 nM RGS4-biotin
Where a SMILES comes first, the peptide text is derived from it. Bridges are numbered along the chain shown (N, C = ends).
property: % Inhibition of RGS4-Gαo (%)
Value expressed in %; do not type the unit.

>  <compound>
CSCC[C@@H]1NC(=O)[C@@H](NC(=O)[C@@H](NC(=O)[C@H](CCCCN)NC(C)=O)C(C)C)CSSC[C@@H](C(=O)N[C@H](C(N)=O)[C@@H](C)O)NC(=O)CNC(=O)CNC1=O [Peptide 4ad, Ac-KVCMGGCT-NH2] (Ac-KVCMGGCT-NH2; disulfide 3-7)

>  <property>
% Inhibition of RGS4-Gαo

>  <measured_value>
9

$$$$

// query Could you share what % Inhibition of RGS4-Gαo was measured for CC(=O)N[C@@H](CC(C)C)C(=O)N[C@H](C(=O)N[C@H]1CSSC[C@@H](C(=O)N[C@@H](CCC(N)=O)C(N)=O)NC(=O)[C@H](Cc2ccc(O)cc2)NC(=O)CNC(=O)[C@H](CCCCN)NC1=O)C(C)C [Peptide 3ad, Ac-LVCKGYCQ-NH2] (Ac-LVCKGYCQ-NH2; disulfide 3-7) , tested on RGS4 (Rattus norvegicus)?
// result 10

* * *

Each record here notes measured % Inhibition of RGS4-Gαo.
tgt: RGS4 (Rattus norvegicus)
Construct: made in house
Sequence (P49799 52-205 limits assumed): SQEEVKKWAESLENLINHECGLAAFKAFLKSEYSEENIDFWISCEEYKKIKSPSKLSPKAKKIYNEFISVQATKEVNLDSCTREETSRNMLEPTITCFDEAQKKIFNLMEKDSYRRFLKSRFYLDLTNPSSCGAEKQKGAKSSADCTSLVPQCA
test_protocol: FCPIA (flow cytometry protein interaction assay), RGS4-Gαo interaction, wild type RGS4 (MBP-RGS4Δ51N)
Format: binding
condition: peptide 50 μM; 25 nM Gαo-Alexa Fluor-532, 5 nM RGS4-biotin
Marks after values point to notes of the source that are not given here. Where a SMILES comes first, the peptide text is derived from it. Bridges are numbered along the chain shown (N, C = ends).

Look over these answered cases.
>  <compound>
CC(=O)N[C@@H](Cc1ccc(O)cc1)C(=O)N[C@@H](Cc1c[nH]c2ccccc12)C(=O)N[C@H]1CSSC[C@@H](C(=O)N[C@@H](CCCCN)C(N)=O)NC(=O)[C@H](CC(C)C)NC(=O)CNC(=O)[C@H](CCCCN)NC1=O [Peptide 5ad, Ac-YWCKGLCK-NH2] (Ac-YWCKGLCK-NH2; disulfide 3-7)

>  <% Inhibition of RGS4-Gαo>
37 ± 3*** %

$$$$
>  <compound>
NCCCC[C@H](NC(=O)[C@@H]1CSSC[C@H](NC(=O)[C@H](CC(N)=O)NC(=O)[C@@H](N)Cc2ccc(O)cc2)C(=O)N[C@@H](CCC(N)=O)C(=O)NCC(=O)N[C@@H](CCC(=O)O)C(=O)N1)C(N)=O [Peptide 1nd, YNCQGECK-NH2] (H-YNCQGECK-NH2; disulfide 3-7)

>  <% Inhibition of RGS4-Gαo>
2 ± 4%

$$$$

Continue with the next compound.
// query Name the reported % Inhibition of RGS4-Gαo value associated with the compound CC(=O)N[C@@H](CCCCN)C(=O)N[C@@H](Cc1c[nH]cn1)C(=O)N[C@H]1CSSC[C@@H](C(=O)N[C@@H](Cc2ccc(O)cc2)C(N)=O)NC(=O)[C@H](Cc2ccccc2)NC(=O)CNC(=O)[C@H](Cc2ccc(O)cc2)NC1=O [Peptide 6ad, Ac-KHCYGFCY-NH2] (Ac-KHCYGFCY-NH2; disulfide 3-7)
// result 27 ± 4*** %

* * *

test_protocol: Solubility in buffer by HPLC
Format: physicochemical
condition: in buffer, determined by HPLC; read-out: Buffer Solubility
Where a SMILES comes first, the peptide text is derived from it. Bridges are numbered along the chain shown (N, C = ends).
property: solubility (µM)
Provide the reading as a plain figure in µM.

Below, 2 molecules whose answers are already recorded.
>  <molecule>
CC[C@H](C)[C@@H]1NC(=O)CNC(=O)[C@H]([C@@H](C)O)NC(=O)[C@@H](NC(=O)[C@H](CCCCN)NC(=O)[C@@H](NC(C)=O)C(C)C)CSSC[C@@H](C(=O)N[C@@H](CCC(=O)O)C(N)=O)NC1=O [YJ34, reference compound] (Ac-VKCTGICE-NH2; disulfide 3-7)

>  <unit_text>
µM

>  <solubility>
80

$$$$
>  <molecule>
CC(=O)N[C@@H](Cc1ccc(O)cc1)C(=O)N[C@@H](Cc1c[nH]c2ccccc12)C(=O)N[C@H]1CSSC[C@@H](C(=O)N[C@@H](CCCCN)C(N)=O)NC(=O)[C@H](CC(C)C)NC(=O)CNC(=O)[C@H](CCCCN)NC1=O [Peptide 5ad, Ac-YWCKGLCK-NH2] (Ac-YWCKGLCK-NH2; disulfide 3-7)

>  <unit_text>
µM

>  <solubility>
464

$$$$

// query For the molecule shown here, CC(C)C[C@H](NC(=O)CNC(=O)[C@H](CCCCN)NC(=O)[C@H](CS)NC(=O)[C@H](Cc1c[nH]c2ccccc12)NC(=O)[C@@H](N)Cc1ccc(O)cc1)C(=O)N[C@@H](CS)C(=O)N[C@@H](CCCCN)C(N)=O [Peptide 5nl, YWCKGLCK-NH2] (H-YWCKGLCK-NH2) , give the reported solubility.
// result 465

* * *

test_protocol: Solubility in buffer by HPLC
Format: physicochemical
condition: in buffer, determined by HPLC; read-out: Buffer Solubility
Where a SMILES comes first, the peptide text is derived from it. Bridges are numbered along the chain shown (N, C = ends).
property: solubility (µM)
Give the quantity in µM, number only.

>  <compound>
CC(=O)N[C@@H](CC(C)C)C(=O)N[C@H](C(=O)N[C@H]1CSSC[C@@H](C(=O)N[C@@H](CCC(N)=O)C(N)=O)NC(=O)[C@H](Cc2ccc(O)cc2)NC(=O)CNC(=O)[C@H](CCCCN)NC1=O)C(C)C [Peptide 3ad, Ac-LVCKGYCQ-NH2] (Ac-LVCKGYCQ-NH2; disulfide 3-7)

>  <measured_value>
427

$$$$

Next item in the queue.
// query # get_value(readout='solubility', item= CC(=O)N[C@@H](CCCCN)C(=O)N[C@@H](Cc1c[nH]cn1)C(=O)N[C@H]1CSSC[C@@H](C(=O)N[C@@H](Cc2ccc(O)cc2)C(N)=O)NC(=O)[C@H](Cc2ccccc2)NC(=O)CNC(=O)[C@H](Cc2ccc(O)cc2)NC1=O [Peptide 6ad, Ac-KHCYGFCY-NH2] (Ac-KHCYGFCY-NH2; disulfide 3-7) )
// result 421
